System: NCTC clone 929 murine conjunctive cells
assayProtocol: Cytotoxicity against mammalian cells, MTT assay
Format: cell-based
experimentalConditions: NCTC clone 929, 48 h at 37°C, highest concentration 200 µM, read-out: Cytotoxicity CC50 (C.I.95%)
Kindly supply the reported CC50 values for the records listed here.
Give bare numbers, in µM.

Examples with answers:
Cc1cccc(SC(C2=C(O)C(=O)c3ccccc3C2=O)c2ccccc2)c1 (stereo not drawn) [Compound 20]: 138
O=C1C(O)=C(CSc2ccc(F)cc2)C(=O)c2ccccc21 [Compound 5]: 97.9
Cc1ccccc1SC(C1=C(O)C(=O)c2ccccc2C1=O)c1ccc([N+](=O)[O-])cc1 (stereo not drawn) [Compound 34]: 96
COc1ccc(SCC2=C(O)C(=O)c3ccccc3C2=O)cc1 [Compound 3]: 92.6
CCCSC(C1=C(O)C(=O)c2ccccc2C1=O)c1ccc([N+](=O)[O-])cc1 (stereo not drawn) [Compound 35]: 75.1
CSc1ccc(SCC2=C(O)C(=O)c3ccccc3C2=O)cc1 [Compound 6]: 100

Proceeding to the next molecule to report its CC50.
QUERY: Quick one: CC50 for O=C1C(O)=C(C(Sc2ccc3ccccc3c2)c2ccc([N+](=O)[O-])cc2)C(=O)c2ccccc21 (stereo not drawn) [Compound 36] ?
RESULT: 58.2
